meta.source: ChEMBL document CHEMBL1201862

What GI50 was measured for each of the following?
System: A498
experiment-notes: NCI tumour cell line growth inhibition, 48 h
Activity calls are given as the source filed them. Cut-off read from the data, not from the text of the source: active = GI50 up to about 1.1 µM and inactive = higher.

Lookup: Give recorded GI50 with A498 for the following compound: CCCCCCCC1(N=[N+]=[N-])C(=O)c2ccccc2N(C)C1=O (stereo not given)
Found: > 100 µM (inactive)

Lookup: Item O=C(O)C1(c2ccccc2)CCCNCC1 (stereo not given) with A498 - GI50?
Found: > 100 µM (inactive)

Lookup: What value of GI50 on A498 does `CC1=N/C(=C\c2cccc([N+](=O)[O-])c2)C(=O)O1` have?
Found: > 100 µM (inactive)

Lookup: Notebook entry, A498 assay: GI50 of `O=C(O)c1cc(/N=C/c2ccccc2O)cc(C(=O)O)c1` = ?
Found: > 100 µM (inactive)

Lookup: Item: `O=c1c(Cc2c(O)ccc3ccccc23)nnc2sc(-c3nn4c(=O)c(Cc5c(O)ccc6ccccc56)nnc4s3)nn12` Test system: A498 Read-out: GI50 Value: ?
Found: 42.2 µM (inactive)

Lookup: Provide value of GI50 for this record tested with A498: CC(C)CC1c2[nH]c3ccccc3c2C[C@H]2C(=O)NC(CCC(=O)OC(C)(C)C)C(=O)N12 (stereo not given in full)
Found: 40.4 µM (inactive)

Lookup: API: value(readout= GI50, system= A498, query= `CC(=O)ONC(C(=O)C(C)(C)C)C(=O)C(C)(C)C` )
Found: > 100 µM (inactive)

Lookup: Given the entry `C=C1C(=O)[C@@]23CC[C@@H]4[C@@]5(C)CCC[C@@]4(OC5=O)[C@@]2(C)CC[C@@H]1C3` , what GI50 was observed with A498?
Found: 3.24 µM (inactive)

Lookup: Query GI50 on A498 for `CC[C@@]1(O)C(=O)OCc2c1cc1n(c2=O)Cc2c-1nc1ccc(O)cc1c2CC[Si](C)(C)C`
Found: 0.00383 µM (active)

Lookup: # get_value(readout= GI50, system= A498) for `NNc1ncnc2cccc(Cl)c12`
Found: > 100 µM (inactive)

Lookup: Lab note: need GI50 for `CN(C)c1ccc(/C=C2\N=C(c3ccccc3)N(c3nc4c(Cl)cc(Cl)cc4s3)C2=O)cc1` on A498, anyone have it?
Found: 27.4 µM (inactive)

Lookup: Value wanted: GI50 (A498) of entry `O=C(Cn1c(C(=O)/C=C/c2ccc(Cl)c(Cl)c2)nc2ccccc21)c1ccccc1`
Found: 26.1 µM (inactive)

Lookup: Short answer please: GI50, A498, entry `Cc1ccc(S(=O)(=O)NCCCSCCN)cc1`
Found: 4.99 µM (inactive)

Lookup: Which GI50 is reported with A498 for this entry: `CCCC(=O)OCC(COC(=O)CCC)OC(=O)CCC` ?
Found: > 100 µM (inactive)

Lookup: Query the reported GI50 for A498; item: COc1cc2c(cc1OC)C(=O)C1(C2)[C@H](c2ccccc2)C2C(=O)c3cc(OC)c(OC)cc3C2[C@H]1c1ccccc1 (stereo not given in full)
Found: > 100 µM (inactive)

Lookup: Write down the reported GI50 of `CS(=O)(=O)c1nc(-c2cc3c(c(S(C)(=O)=O)n2)CCC3)cc2c1CCC2` , test system: A498.
Found: > 100 µM (inactive)

Lookup: Form field - read-out: GI50; system: A498; submitted item: `CCCC(=O)Nc1cc(/C=C/C(=O)N2C[C@H]3C[C@@]34C2=CC(=O)c2[nH]cc(C)c24)n(C)c1`
Found: < 0.0025 µM (active)

Lookup: Lab request: please report GI50 under test system A498 for `CCOC(=O)c1csc(NC(=O)CCN2CCN(C)CC2)n1`
Found: > 100 µM (inactive)

Lookup: Entry `O=C1Nc2ccccc2/C1=N/NC(=S)N1CCCCC1` , system A498: what GI50 was measured?
Found: 0.356 µM (active)

Lookup: For A498, provide GI50 of Cn1cc2ccccc2c1-c1nc(F)nc(Oc2ccc3c(c2)CC[C@@H]2C3CC[C@@]3(C)C2C[C@H](O)[C@@H]3O)n1 (stereo not given in full) please.
Found: 27.3 µM (inactive)
